Data provenance is PubChem BioAssay (NCATS).

- experiment.notes: Quantitative highthroughput screen to assess conditional lethalithy of SEM cells grown in RPMI1640 with unreated serum (RPMI+s) (AID 1963883); note: nearly all actives have a fitted effect of over 35% in size
- run.conditions: SEM B-ALL cells, CellTiter-Glo viability, 48 h; series mostly up to 45.8 µM
Records with an inconclusive call do not appear. Calls of active or inactive are those of the source. Calls come from the whole dose curve; as a rule, active = well fitted cell-killing curve with a large enough effect; inconclusive = small, poorly fitted or top-dose-only effect, or effect the other way; inactive = no such curve, though single readings can be large or run the other way.
Your reply should match one of these outcome classes. Y for active, N for inactive

These recorded examples may help you get a feel for the data.
molecule: NC(N)=NC(=O)c1nc(Cl)c(N)nc1N
category.label: N

molecule: Cc1ccc(-n2nc(C(C)(C)C)cc2NC(=O)Nc2ccc(OCCN3CCOCC3)c3ccccc23)cc1
category.label: Y

molecule: COc1ccc(C2CNC(=O)C2)cc1OC1CCCC1 (stereo not given)
category.label: N

molecule: CCCC(CCC)C(=O)O
category.label: N

molecule: COc1ncc(-c2ccc3c(Nc4cc(Oc5cc(F)cc(F)c5)cc(C(=O)O)c4)c(S(=O)(=O)NC4CC4)cnc3c2)c(OC)n1
category.label: N

molecule: CC[C@@H]1C(=O)N(C)c2cnc(Nc3ccc(C(=O)NC4CCN(C)CC4)cc3OC)nc2N1C1CCCC1
category.label: Y

molecule: COc1ccc(-n2c(C)c([N+](=O)[O-])c3ccc(O)cc32)cc1
category.label: N

molecule: Cc1nnc(C(=O)NC(C)(C)c2nc(C(=O)NCc3ccc(F)cc3)c(O)c(=O)n2C)o1
category.label: N

molecule: CC(C)(C)c1cc(C(=O)O)c(NC(=O)Nc2ccc3[nH]ncc3c2)s1
category.label: N

Please turn your attention to the following entry.
Exam item: For COc1cc2nc(N3CCN(C(=O)c4ccco4)CC3)nc(N)c2cc1OC , what call appears in the results of this test?
Marked response: Y

###

- experiment.notes: Quantitative highthroughput screen to assess conditional lethalithy of P12 Ichikawa cells grown in Human Plasma-Like Medium with dialyzed fetal bovine serum (HPLM+ds) (AID 1963879); note: nearly all actives have a fitted effect of over 35% in size
- run.conditions: ATP luminescence, 48 h; viability; series mostly up to 45.8 µM
Results filed as inconclusive are left out. The source made the active and inactive calls. The call rests on the fitted dose curve; in most records, active means well fitted cell-killing curve with a large enough effect; inconclusive means small, poorly fitted or top-dose-only effect; inactive means flat fitted curve, though single readings scatter.
One label from this list, please: true (active), false (inactive)

Answered cases to consult:
molecule: CCN(CC)CCOc1ccc(C(=C(Cl)c2ccccc2)c2ccccc2)cc1
category.label: false

molecule: Nc1ccc(S(=O)(=O)Nc2ncccn2)cc1
category.label: false

molecule: Nc1[nH]nc2nnc(-c3c(-c4ccccc4)nn4ccccc34)cc12
category.label: true

molecule: CC(C)(O)c1cc2nc(-c3cnc(N)nc3)nc(N3CCOCC3)c2s1
category.label: true

Exam item: For CC(C=CC=C(C)C=CC1=C(C)CCCC1(C)C)=CC=CC=C(C)C=CC=C(C)C=CC1=C(C)CCCC1(C)C , what call appears in the results of this test?
Marked response: false

Exam item: // outcome(item) with item = NS(=O)(=O)c1cc2c(cc1Cl)NC(C(Cl)Cl)NS2(=O)=O (stereo not given)
Marked response: false

Exam item: How did this test come out for CCN(CC)CC#CCOC(=O)C(O)(c1ccccc1)C1CCCCC1 (stereo not given) ?
Marked response: false

###

- experiment.notes: Cellular viability qHTS for adrenocortical cancer (ACC) cell line NCI-H295R (AID 1963990); note: nearly all actives have a fitted effect of over 60% in size
- run.conditions: CellTiter-Glo ATP luminescence, 48 h; series mostly up to 46.1 µM
Records with an inconclusive call do not appear. Active and inactive are the calls of the source. Calls follow the shape of the dose curve; as a rule, active = well fitted cell-killing curve with a large enough effect; inconclusive = small, poorly fitted or top-dose-only effect; inactive = flat fitted curve, though single readings scatter.
Give one outcome, nothing more. List: active, inactive

Below are worked cases with known answers.
molecule: CCN(CC)CCOCCOC(=O)C1(c2ccccc2)CCCC1
category.label: inactive

molecule: NCc1ccc(S(N)(=O)=O)cc1
category.label: inactive

molecule: CC(=O)C1CCC2C3CCC4=CC(=O)CCC4(C)C3CCC12C (centres undefined)
category.label: inactive

Exam item: Look up the recorded call for O=C(O)CNC(=O)CNC(=O)CNC(=O)CSC(=O)c1ccccc1 in this test.
Marked response: inactive

Exam item: In this assay, the call recorded for NC(=O)c1ccc(N(C(N)=O)c2c(F)cccc2F)nc1-c1ccc(F)cc1F was what?
Marked response: inactive

Exam item: Status in this test for Cn1nnc2c(C(N)=O)ncn2c1=O ?
Marked response: inactive

Exam item: In this assay, the call recorded for CCn1c(=O)c(-c2ccc(-c3cncs3)cc2Cl)cc2cnc(Nc3ccc(N4CCN(C)CC4)cc3)nc21 was what?
Marked response: inactive

Exam item: In this assay, the call recorded for COc1cc(C(=O)NC2CCCNC2)cc(OC)c1OC (centres undefined) was what?
Marked response: inactive
